Target: Voltage-dependent L-type calcium channel subunit alpha-1C (Homo sapiens, UniProt Q13936)
Sequence (Q13936 whole entry): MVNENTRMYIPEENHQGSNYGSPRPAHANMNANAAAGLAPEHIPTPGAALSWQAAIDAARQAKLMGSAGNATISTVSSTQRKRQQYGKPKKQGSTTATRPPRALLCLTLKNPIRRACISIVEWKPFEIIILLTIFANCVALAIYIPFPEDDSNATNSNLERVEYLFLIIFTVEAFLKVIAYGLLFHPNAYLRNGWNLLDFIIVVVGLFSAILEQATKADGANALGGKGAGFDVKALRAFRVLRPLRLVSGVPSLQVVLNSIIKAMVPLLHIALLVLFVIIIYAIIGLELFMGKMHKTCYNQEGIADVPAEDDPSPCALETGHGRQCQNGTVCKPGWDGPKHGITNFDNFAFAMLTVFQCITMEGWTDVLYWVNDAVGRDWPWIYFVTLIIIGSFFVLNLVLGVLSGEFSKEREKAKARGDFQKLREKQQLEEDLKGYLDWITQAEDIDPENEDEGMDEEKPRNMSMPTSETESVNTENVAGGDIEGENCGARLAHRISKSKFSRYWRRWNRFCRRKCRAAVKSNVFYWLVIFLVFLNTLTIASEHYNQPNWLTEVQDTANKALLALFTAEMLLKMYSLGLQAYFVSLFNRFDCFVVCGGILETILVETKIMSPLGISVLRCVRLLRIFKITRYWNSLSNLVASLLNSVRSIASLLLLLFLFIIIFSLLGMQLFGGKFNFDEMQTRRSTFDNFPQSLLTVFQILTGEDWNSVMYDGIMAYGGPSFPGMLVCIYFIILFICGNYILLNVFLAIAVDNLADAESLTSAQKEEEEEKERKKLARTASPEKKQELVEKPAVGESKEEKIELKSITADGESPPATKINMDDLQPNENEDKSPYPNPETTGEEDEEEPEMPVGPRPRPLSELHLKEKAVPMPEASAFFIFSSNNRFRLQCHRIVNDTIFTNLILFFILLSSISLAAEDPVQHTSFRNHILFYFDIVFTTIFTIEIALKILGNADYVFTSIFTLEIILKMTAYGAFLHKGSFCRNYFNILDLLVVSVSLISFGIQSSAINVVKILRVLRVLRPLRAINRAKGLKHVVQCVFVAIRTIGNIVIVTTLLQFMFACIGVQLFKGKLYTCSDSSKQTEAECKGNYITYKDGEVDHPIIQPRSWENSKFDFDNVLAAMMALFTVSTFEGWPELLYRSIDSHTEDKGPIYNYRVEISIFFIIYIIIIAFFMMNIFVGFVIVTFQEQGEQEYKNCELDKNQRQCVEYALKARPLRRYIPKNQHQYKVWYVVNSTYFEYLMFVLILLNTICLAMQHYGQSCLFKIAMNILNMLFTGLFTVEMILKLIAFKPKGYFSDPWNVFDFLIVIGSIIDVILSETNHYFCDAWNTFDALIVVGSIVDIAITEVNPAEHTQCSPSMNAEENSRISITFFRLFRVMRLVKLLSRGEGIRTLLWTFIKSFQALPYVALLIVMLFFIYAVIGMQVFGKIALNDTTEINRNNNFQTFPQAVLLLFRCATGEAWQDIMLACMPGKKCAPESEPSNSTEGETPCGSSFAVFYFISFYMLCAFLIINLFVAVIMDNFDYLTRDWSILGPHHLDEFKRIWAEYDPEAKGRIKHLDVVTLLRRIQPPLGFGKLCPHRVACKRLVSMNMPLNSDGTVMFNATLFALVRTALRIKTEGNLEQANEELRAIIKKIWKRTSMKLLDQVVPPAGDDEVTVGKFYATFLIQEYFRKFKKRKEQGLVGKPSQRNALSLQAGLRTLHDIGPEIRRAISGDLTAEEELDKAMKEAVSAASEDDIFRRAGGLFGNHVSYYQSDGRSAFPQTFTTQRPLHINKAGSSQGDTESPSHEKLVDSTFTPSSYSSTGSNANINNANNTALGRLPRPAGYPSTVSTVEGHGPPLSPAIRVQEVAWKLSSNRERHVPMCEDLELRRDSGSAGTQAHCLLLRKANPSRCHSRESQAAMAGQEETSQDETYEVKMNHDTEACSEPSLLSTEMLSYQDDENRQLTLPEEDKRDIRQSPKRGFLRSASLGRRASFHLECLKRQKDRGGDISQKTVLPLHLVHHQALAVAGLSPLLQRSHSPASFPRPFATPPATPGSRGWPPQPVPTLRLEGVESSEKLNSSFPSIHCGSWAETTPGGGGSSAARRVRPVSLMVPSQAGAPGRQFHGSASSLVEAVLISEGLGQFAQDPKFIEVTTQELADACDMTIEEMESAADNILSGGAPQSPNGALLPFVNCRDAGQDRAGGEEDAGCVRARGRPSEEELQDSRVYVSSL
Assay: Antagonist activity at Cav1.2 (unknown origin) stably expressed in HEK293 cells at 10 uM assessed as inhibition of LTCC current by Whole cell patch clamp assay relative to control
Assay type: cell-based
Details: read-out: Activity
Label rule, in plain words: inhibition at 10 µM of 60% and up is t, under 60% is f.

molecule	assigned category
COC(=O)C1=C(C)NC(C)=C(C(=O)OCCOCCNC(=O)CCCCC[N+]2=C(/C=C/C=C/C=C3/N(C)c4ccccc4C3(C)C)C(C)(C)c3ccccc32)C1c1cccc(Cl)c1Cl (stereo not given)	t

# check: inhibition at 10 µM of COC(=O)C1=C(C)NC(C)=C(C(=O)OCCOCCNC(=O)CCCCC[N+]2=C(/C=C/C=C/C=C3N(C)c4ccccc4C3(C)C)C(C)(C)c3ccccc32)[C@@H]1c1cccc(Cl)c1Cl is greater than or equal to 60%
t

Decide: inhibition at 10 µM of COC(=O)C1=C(C)NC(C)=C(C(=O)OCCCCCCCCNC(=O)CCCCC[N+]2=C(/C=C/C=C/C=C3/N(C)c4ccccc4C3(C)C)C(C)(C)c3ccccc32)C1c1cccc(Cl)c1Cl (stereo not given) >= 60%?
f

Hello, I need to know if COC(=O)C1=C(C)NC(C)=C(C(=O)OCCCCCCCCNC(=O)CCCCC[N+]2=C(/C=C/C=C/C=C3/N(C)c4ccccc4C3(C)C)C(C)(C)c3ccccc32)C1c1ccccc1[N+](=O)[O-] (stereo not given) has measured inhibition at 10 µM not below 60%. Thanks!
t

Say whether COC(=O)C1=C(C)NC(C)=C(C(=O)OCCOCCNC(=O)CCCCC[N+]2=C(/C=C/C=C/C=C3/N(C)c4ccccc4C3(C)C)C(C)(C)c3ccccc32)C1c1ccccc1/C=C/C(=O)OC(C)(C)C (stereo not given) shows inhibition at 10 µM of 60% or more.
t

* * *

Molecular target: Voltage-dependent L-type calcium channel subunit alpha-1C (Homo sapiens, UniProt Q13936)
Assay: Antagonist activity at Cav1.2 (unknown origin) stably expressed in HEK293 cells assessed as inhibition of LTCC current by Whole cell patch clamp assay
value type: pIC50
Bear in mind: pIC50 is minus log10 of a mol/L concentration; give just that figure.

molecule	target entity	value type	value measured
COC(=O)C1=C(C)NC(C)=C(C(=O)OCCCCCCNC(=O)CCCCC[N+]2=C(/C=C/C=C/C=C3/N(C)c4ccccc4C3(C)C)C(C)(C)c3ccccc32)C1c1ccccc1[N+](=O)[O-] (stereo unspecified)	Voltage-dependent L-type calcium channel subunit alpha-1C (Homo sapiens, UniProt Q13936)	pIC50	4.90

Can you share its pIC50? I mean this molecule: COC(=O)C1=C(C)NC(C)=C(C(=O)OCCOCCNC(=O)CCCCC[N+]2=C(/C=C/C=C/C=C3/N(C)c4ccccc4C3(C)C)C(C)(C)c3ccccc32)C1c1cccc(Cl)c1Cl (stereo unspecified)
5.13

Consider the molecule shown here: COC(=O)C1=C(C)NC(C)=C(C(=O)OCCCCCCCCNC(=O)CCCCC[N+]2=C(/C=C/C=C/C=C3/N(C)c4ccccc4C3(C)C)C(C)(C)c3ccccc32)C1c1ccccc1[N+](=O)[O-] (stereo unspecified) What is its recorded pIC50?
5.72

What value of pIC50 has been reported for the following molecule? COC(=O)C1=C(C)NC(C)=C(C(=O)OCCOCCNC(=O)CCCCC[N+]2=C(/C=C/C=C/C=C3N(C)c4ccccc4C3(C)C)C(C)(C)c3ccccc32)[C@@H]1c1cccc(Cl)c1Cl
5.19

Reported pIC50 for COC(=O)C1=C(C)NC(C)=C(C(=O)OCCOCCNC(=O)CCCCC[N+]2=C(/C=C/C=C/C=C3/N(C)c4ccccc4C3(C)C)C(C)(C)c3ccccc32)C1c1ccccc1[N+](=O)[O-] (stereo unspecified) : what is it?
5.66

So what's the measured pIC50 for this one? COC(=O)C1=C(C)NC(C)=C(C(=O)OCCOCCOCCNC(=O)CCCCC[N+]2=C(/C=C/C=C/C=C3\N(C)c4ccccc4C3(C)C)C(C)(C)c3ccccc32)C1c1cccc(Cl)c1Cl (stereo unspecified)
5.46

Return reported pIC50; argument: COC(=O)C1=C(C)NC(C)=C(C(=O)OCCOCCNC(=O)CCCCC[N+]2=C(/C=C/C=C/C=C3/N(C)c4ccccc4C3(C)C)C(C)(C)c3ccccc32)C1c1ccccc1/C=C/C(=O)OC(C)(C)C (stereo unspecified)
5.97

For the molecule COC(=O)C1=C(C)NC(C)=C(C(=O)OCCNC(=O)CCCCC[N+]2=C(/C=C/C=C/C=C3/N(C)c4ccccc4C3(C)C)C(C)(C)c3ccccc32)C1c1cccc(Cl)c1Cl (stereo unspecified) , what pIC50 is on record?
5.37

Look up pIC50 for this molecule: COC(=O)C1=C(C)NC(C)=C(C(=O)OCCCCCCNC(=O)CCCCC[N+]2=C(/C=C/C=C/C=C3/N(C)c4ccccc4C3(C)C)C(C)(C)c3ccccc32)C1c1cccc(Cl)c1Cl (stereo unspecified)
4.90

Quick check: pIC50 of COC(=O)C1=C(C)NC(C)=C(C(=O)OCCOCCNC(=O)CCCCC[N+]2=C(/C=C/C=C/C=C3/N(C)c4ccccc4C3(C)C)C(C)(C)c3ccccc32)C1c1ccccc1OS(=O)(=O)F (stereo unspecified) ?
5.82

What does the data say about its pIC50? Entry: COC(=O)C1=C(C)NC(C)=C(C(=O)OCCOCCNC(=O)CCCCC[N+]2=C(/C=C/C=C/C=C3\N(C)c4ccccc4C3(C)C)C(C)(C)c3ccccc32)[C@H]1c1cccc(Cl)c1Cl
6.19

* * *

Biological target: Voltage-dependent L-type calcium channel subunit alpha-1C (Homo sapiens, UniProt Q13936)
Assay: Antagonist activity at Cav1.2 (unknown origin) stably expressed in HEK293 cells at 10 uM assessed as inhibition of LTCC current by Whole cell patch clamp assay relative to control
Type: cell-based
Settings: read-out: Activity
Recorded inhibition at 10 µM values for a group of compounds are listed next.
# number only, unit % dropped from output

Sample records with inhibition at 10 µM:
compound	value type	output unit	value measured
COC(=O)C1=C(C)NC(C)=C(C(=O)OCCNC(=O)CCCCC[N+]2=C(/C=C/C=C/C=C3/N(C)c4ccccc4C3(C)C)C(C)(C)c3ccccc32)C1c1cccc(Cl)c1Cl (stereo not drawn)	inhibition at 10 µM	%	72
COC(=O)C1=C(C)NC(C)=C(C(=O)OCCCCCCNC(=O)CCCCC[N+]2=C(/C=C/C=C/C=C3/N(C)c4ccccc4C3(C)C)C(C)(C)c3ccccc32)C1c1cccc(Cl)c1Cl (stereo not drawn)	inhibition at 10 µM	%	50

Fill in the blank: the reported inhibition at 10 µM of COC(=O)C1=C(C)NC(C)=C(C(=O)OCCOCCNC(=O)CCCCC[N+]2=C(/C=C/C=C/C=C3/N(C)c4ccccc4C3(C)C)C(C)(C)c3ccccc32)C1c1ccccc1[N+](=O)[O-] (stereo not drawn) is ____.
83

* * *

# key: entry, value: inhibition at 10 µM
Target: Voltage-dependent L-type calcium channel subunit alpha-1C (Homo sapiens)
Assay: Antagonist activity at Cav1.2 (unknown origin) stably expressed in HEK293 cells at 10 uM assessed as inhibition of LTCC current by Whole cell patch clamp assay relative to control
Assay type: cell-based
Settings: read-out: Activity
Answer format reminder: number followed by unit.

Use the examples below as a reference point.
molecule	inhibition at 10 µM
COC(=O)C1=C(C)NC(C)=C(C(=O)OC)C1c1ccccc1[N+](=O)[O-] [NIFEDIPINE]	102%
COC(=O)C1=C(C)NC(C)=C(C(=O)OCCCCCCNC(=O)CCCCCNC(=O)Oc2ccc(/C=C/C3=[N+]4C(=Cc5ccc(-c6cccs6)n5[B-]4(F)F)C=C3)cc2)C1c1cccc(Cl)c1Cl (stereo not drawn)	24%

For the next question, use this molecule.
Which inhibition at 10 µM reading was recorded for the molecule COC(=O)C1=C(C)NC(C)=C(C(=O)OCCOCCNC(=O)CCCCC[N+]2=C(/C=C/C=C/C=C3\N(C)c4ccccc4C3(C)C)C(C)(C)c3ccccc32)[C@H]1c1cccc(Cl)c1Cl ?
94%

* * *

Molecular target: Voltage-dependent L-type calcium channel subunit alpha-1C (Homo sapiens)
Test: Antagonist activity at Cav1.2 (unknown origin) stably expressed in HEK293 cells at 10 uM assessed as inhibition of LTCC current by Whole cell patch clamp assay relative to control
Type: cell-based
Settings: read-out: Activity
value type: inhibition at 10 µM (%)
Write the number in % without appending the unit.

Observe how each entry below is paired with its result.
molecule	target entity	value measured
COC(=O)C1=C(C)NC(C)=C(C(=O)OCCOCCNC(=O)CCCCC[N+]2=C(/C=C/C=C/C=C3/N(C)c4ccccc4C3(C)C)C(C)(C)c3ccccc32)C1c1ccccc1OS(=O)(=O)F (stereo not drawn)	Voltage-dependent L-type calcium channel subunit alpha-1C (Homo sapiens)	88
COC(=O)C1=C(C)NC(C)=C(C(=O)OCCOCCOCCNC(=O)CCCCC[N+]2=C(/C=C/C=C/C=C3\N(C)c4ccccc4C3(C)C)C(C)(C)c3ccccc32)C1c1cccc(Cl)c1Cl (stereo not drawn)	Voltage-dependent L-type calcium channel subunit alpha-1C (Homo sapiens)	77

Consider now this further molecule.
Quick one: inhibition at 10 µM for COC(=O)C1=C(C)NC(C)=C(C(=O)OCCCCCCNC(=O)CCCCC[N+]2=C(/C=C/C=C/C=C3/N(C)c4ccccc4C3(C)C)C(C)(C)c3ccccc32)C1c1ccccc1[N+](=O)[O-] (stereo not drawn) ?
52
